target: GABA transporter 3 (Mus musculus, UniProt P31649); test: Inhibition of mouse mGAT3 expressed in HEK293 cells assessed as inhibition of [3H]GABA uptake after 3 mins incubation by TopCount microplate scintillation counting analysis; type: cell-based; conditions: read-out: IC50
Sequence (P31649 whole entry): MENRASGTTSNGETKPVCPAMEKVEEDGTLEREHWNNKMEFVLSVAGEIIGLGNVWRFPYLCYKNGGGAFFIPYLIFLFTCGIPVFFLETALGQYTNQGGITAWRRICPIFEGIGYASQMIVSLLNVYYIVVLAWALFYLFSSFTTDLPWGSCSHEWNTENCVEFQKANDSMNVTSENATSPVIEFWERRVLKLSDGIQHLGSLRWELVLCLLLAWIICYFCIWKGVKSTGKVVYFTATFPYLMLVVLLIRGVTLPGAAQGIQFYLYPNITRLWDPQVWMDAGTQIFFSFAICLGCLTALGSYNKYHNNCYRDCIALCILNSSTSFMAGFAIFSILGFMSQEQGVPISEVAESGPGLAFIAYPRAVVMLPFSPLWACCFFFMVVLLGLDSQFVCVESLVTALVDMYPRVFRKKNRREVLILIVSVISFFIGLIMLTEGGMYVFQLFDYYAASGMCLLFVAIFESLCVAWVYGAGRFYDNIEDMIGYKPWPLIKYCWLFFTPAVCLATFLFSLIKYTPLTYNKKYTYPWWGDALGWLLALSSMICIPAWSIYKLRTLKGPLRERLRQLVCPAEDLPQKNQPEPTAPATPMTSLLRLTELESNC
property_measured: pIC50
In simple prose, pIC50 is minus the logarithm base ten of a concentration in moles per litre.

C=CCN1CCN(CCC=C(c2sccc2C)c2sccc2C)CC(C(=O)O)C1 (stereo not given)	2.96
CN(CCC=C1c2ccccc2CCc2ccccc21)CCC(=O)O	2.98
Cc1ccsc1C(=CCCN(C)CCC(=O)O)c1sccc1C	3.46
Cc1ccsc1C(=CCCN(C)C1CCCC=C1C(=O)O)c1sccc1C (stereo in doubt; (E1)-6a)	3.12

[in] Item CNCCON=C(c1ccccc1)c1ccccc1 has what recorded pIC50?
[out] 2.98

[in] Need pIC50 of CN(CCC=C1c2ccccc2CCc2ccccc21)[C@@H]1CCCC[C@H]1C(=O)O (racemic) , thanks.
[out] 3.01

[in] # input compound: CN(CCC=C1c2ccccc2CCc2ccccc21)[C@H]1CCCC[C@H]1CO ; wanted: its pIC50
[out] 3.83

* * *

target: UniProtKB P31649; experiment: Inhibition of mouse mGAT3 expressed in HEK293 cells assessed as inhibition of [3H]GABA uptake after 3 mins incubation by TopCount microplate scintillation counting analysis; type: cell-based; settings: hek293; read-out: IC50
pIC50: −log10 of the molar value.
property_measured: pIC50

[in] Query: pIC50; subject: CN(CCON=C(c1ccccc1)c1ccccc1)[C@@H]1CCCC[C@H]1C(=O)O
[out] < 2.70

* * *

biological target: UniProtKB P31651; assay: Inhibition of mouse mGAT2 expressed in HEK293 cells assessed as inhibition of [3H]GABA uptake after 3 mins incubation by TopCount microplate scintillation counting analysis; assay type: cell-based; conditions: read-out: IC50
property_measured: pIC50
// field semantics: pIC50 = negative decimal log of concentration (mol/L)

The cases that follow already have their pIC50 on record.
CN(CCC=C1c2ccccc2CCc2ccccc21)[C@H]1CCCC[C@H]1C(=O)O	3.83
CN(CCON=C(c1ccccc1)c1ccccc1)[C@@H]1CCCC[C@H]1C(=O)O (racemic)	2.96
CCOC(=O)[C@@H]1CCCC[C@@H]1N(C)CCC=C(c1sccc1C)c1sccc1C	3.66
Cc1ccsc1C(=CCCN(C)[C@H]1CCCC[C@H]1CO)c1sccc1C	4.57

[in] What does the record list as pIC50 for CN(CCON=C(c1ccccc1)c1ccccc1)[C@H]1CCCC[C@H]1C(=O)O ?
[out] 3.38

[in] Which pIC50 is listed for CCOC(=O)[C@H]1CCCC[C@H]1N(C)CCC=C1c2ccccc2CCc2ccccc21 ?
[out] 3.35

* * *

biological target: Sodium- and chloride-dependent GABA transporter 1 (Mus musculus); assay: Inhibition of mouse mGAT1 expressed in HEK293 cells assessed as inhibition of [3H]GABA uptake after 3 mins incubation by TopCount microplate scintillation counting analysis; format: cell-based; details: read-out: IC50
pIC50 values, listed per item
Formally, pIC50 is defined as -log10 of the concentration c, with c in mol/L.

CNCCC=C(c1sccc1C)c1sccc1C	3.80
CN(CCC=C1c2ccccc2CCc2ccccc21)[C@@H]1CCCC[C@@H]1CO	3.54
CN(CCC=C1c2ccccc2CCc2ccccc21)[C@@H]1CCCC[C@@H]1C(=O)O	2.74
CCOC(=O)[C@H]1CCCC[C@H]1N(C)CCOC(c1ccc(C(F)(F)F)cc1)c1ccc(C(F)(F)F)cc1	3.37

Next up:
[in] Please give the measured pIC50 for this compound: CCOC(=O)[C@H]1CCCC[C@H]1N(C)CCON=C(c1ccccc1)c1ccccc1
[out] 2.91

* * *

target: GABA transporter 2 (Mus musculus, UniProt P31651); experiment: Inhibition of mouse mGAT2 expressed in HEK293 cells assessed as inhibition of [3H]GABA uptake after 3 mins incubation by TopCount microplate scintillation counting analysis; format: cell-based; settings: read-out: IC50
Sequence (P31651 whole entry): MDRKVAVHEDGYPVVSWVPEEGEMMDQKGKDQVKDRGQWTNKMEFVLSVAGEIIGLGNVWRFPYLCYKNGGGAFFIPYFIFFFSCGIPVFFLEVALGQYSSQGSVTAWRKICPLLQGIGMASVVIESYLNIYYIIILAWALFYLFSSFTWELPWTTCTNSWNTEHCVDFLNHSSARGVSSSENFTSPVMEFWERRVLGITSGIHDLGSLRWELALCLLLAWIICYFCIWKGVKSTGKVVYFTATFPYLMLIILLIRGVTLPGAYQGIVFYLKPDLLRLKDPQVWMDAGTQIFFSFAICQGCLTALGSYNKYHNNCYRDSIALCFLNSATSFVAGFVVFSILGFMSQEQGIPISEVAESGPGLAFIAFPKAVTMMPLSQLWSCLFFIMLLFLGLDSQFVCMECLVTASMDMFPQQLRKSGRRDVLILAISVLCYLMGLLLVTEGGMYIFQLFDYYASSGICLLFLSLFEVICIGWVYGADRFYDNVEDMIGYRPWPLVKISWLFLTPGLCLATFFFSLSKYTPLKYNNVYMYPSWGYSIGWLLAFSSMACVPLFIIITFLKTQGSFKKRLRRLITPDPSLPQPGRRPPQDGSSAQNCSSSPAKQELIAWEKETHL
pIC50: −log10 of the molar value.
Given measured pIC50, output TRUE if it is greater than or equal to 4 and FALSE if not.

CN(CCOC(c1ccc(C(F)(F)F)cc1)c1ccc(C(F)(F)F)cc1)[C@H]1CCCC[C@H]1CO	FALSE
CN(CCCS(=O)(=O)O)CCON=C(c1ccccc1)c1ccccc1	FALSE
CN(CCOC(c1ccc(C(F)(F)F)cc1)c1ccc(C(F)(F)F)cc1)[C@@H]1CCCC[C@@H]1C(=O)O	TRUE
CCN1CCN(CCON=C(c2ccccc2)c2ccccc2)CC(C(=O)O)C1 (stereo not given)	FALSE
CN(CCON=C(c1ccccc1)c1ccccc1)C1CCCC=C1C(=O)O (stereo not given)	FALSE
Cc1ccsc1C(=CCCN1CCNC(C(=O)O)C1)c1sccc1C (racemic)	FALSE

[in] In plain terms: is recorded pIC50 at least 4 for CN(CCON=C(c1ccccc1)c1ccccc1)[C@H]1CCCC[C@H]1CO ?
[out] TRUE

[in] State whether the measured pIC50 reaches 4, counting equality as reaching it, for CCN1CCNC(C(=O)O)C1 (racemic)
[out] FALSE

* * *

target: Sodium- and chloride-dependent GABA transporter 1 (Mus musculus); assay: Inhibition of mouse mGAT1 expressed in HEK293 cells assessed as inhibition of [3H]GABA uptake after 3 mins incubation by TopCount microplate scintillation counting analysis; format: cell-based; conditions: read-out: IC50
property_measured: pIC50
Scale note: pIC50 = -log10(concentration in M).

Before answering, review these 5 worked examples.
CN(CCC=C1c2ccccc2CCc2ccccc21)[C@H]1CCCC[C@H]1CO	3.72
CN(CCOC(c1ccc(C(F)(F)F)cc1)c1ccc(C(F)(F)F)cc1)[C@@H]1CCCC[C@@H]1C(=O)O	3.35
C=CCN1CCN(CCC=C(c2sccc2C)c2sccc2C)CC(C(=O)O)C1 (centres undefined)	3.26
Cc1ccsc1C(=CCCN(C)C1CCCC=C1C(=O)O)c1sccc1C (stereo in doubt; (E2)-6a)	3.39
O=C(O)C1CN(CCOC(c2ccc(C(F)(F)F)cc2)c2ccc(C(F)(F)F)cc2)CCN1 (racemic)	4.08

// switching to the query compound
[in] Please report the recorded pIC50 for CN(CCC=C1c2ccccc2CCc2ccccc21)C1CCCC=C1C(=O)O (centres undefined) .
[out] 3.37

* * *

The following molecules are shown together with reported pIC50 values.
target: UniProtKB P31649; test: Inhibition of mouse mGAT3 expressed in HEK293 cells assessed as inhibition of [3H]GABA uptake after 3 mins incubation by TopCount microplate scintillation counting analysis; format: cell-based; conditions: read-out: IC50
The quantity pIC50 is defined as the negative base-10 logarithm of the molar concentration.

Consider the following illustrative entries.
CNCCC=C1c2ccccc2CCc2ccccc21	3.57
CNCCOC(c1ccc(C(F)(F)F)cc1)c1ccc(C(F)(F)F)cc1	4.24
CN(CCOC(c1ccc(C(F)(F)F)cc1)c1ccc(C(F)(F)F)cc1)[C@H]1CCCC[C@H]1CO	3.48
CN(CCON=C(c1ccccc1)c1ccccc1)[C@H]1CCCC[C@H]1CO	3.53
CN(CCOC(c1ccc(C(F)(F)F)cc1)c1ccc(C(F)(F)F)cc1)[C@@H]1CCCC[C@@H]1CO	3.92
CCOC(=O)[C@H]1CCCC[C@H]1N(C)CCOC(c1ccc(C(F)(F)F)cc1)c1ccc(C(F)(F)F)cc1	3.29

[in] Query: pIC50; subject: Cc1ccsc1C(=CCCN(C)[C@H]1CCCC[C@H]1CO)c1sccc1C
[out] 3.77

[in] // lookup pIC50 for Cc1ccsc1C(=CCCNCCC(=O)O)c1sccc1C
[out] 3.10

[in] What value of measured pIC50 is listed for Cc1ccsc1C(=CCCN(C)[C@@H]1CCCC[C@@H]1C(=O)O)c1sccc1C ?
[out] 3.48

[in] Entry CCOC(=O)[C@@H]1CCCC[C@@H]1N(C)CCOC(c1ccc(C(F)(F)F)cc1)c1ccc(C(F)(F)F)cc1 has what pIC50?
[out] 3.19

[in] Query: pIC50; subject: O=C(O)CCNCCC=C1c2ccccc2CCc2ccccc21
[out] 2.49

[in] Return reported pIC50; argument: CN(CCC=C1c2ccccc2CCc2ccccc21)[C@@H]1CCCC[C@@H]1CO
[out] 3.82

[in] Using the record for Cc1ccsc1C(=CCCN(C)[C@H]1CCCC[C@H]1C(=O)O)c1sccc1C , report its pIC50.
[out] 3.03

[in] State the recorded pIC50 for this entry: CCOC(=O)[C@@H]1CCCC[C@@H]1N(C)CCC=C1c2ccccc2CCc2ccccc21
[out] 2.87

* * *

target: Sodium- and chloride-dependent GABA transporter 1 (Mus musculus, UniProt P31648); test: Inhibition of mouse mGAT1 expressed in HEK293 cells assessed as inhibition of [3H]GABA uptake after 3 mins incubation by TopCount microplate scintillation counting analysis; type: cell-based; settings: read-out: IC50
property_measured: IC50 (µM)
Provide only the numeric value, understood in µM.

Sample answers from the record:
CN(CCON=C(c1ccccc1)c1ccccc1)CCC(=O)O	9.7
Cc1ccsc1C(=CCCN(C)[C@H]1CCCC[C@H]1C(=O)O)c1sccc1C	562
CNCCOC(c1ccc(C(F)(F)F)cc1)c1ccc(C(F)(F)F)cc1	163
CN(CCCS(=O)(=O)O)CCON=C(c1ccccc1)c1ccccc1	828
CNCCC=C1c2ccccc2CCc2ccccc21 [NORTRIPTYLINE]	389

[in] Which IC50 is reported for this compound? CN(CCOC(c1ccc(C(F)(F)F)cc1)c1ccc(C(F)(F)F)cc1)[C@H]1CCCC[C@H]1CO
[out] 359

[in] Which IC50 value is on record for CN(CCON=C(c1ccccc1)c1ccccc1)[C@@H]1CCCC[C@@H]1CO ?
[out] 426

[in] What value of IC50 has been recorded for this entry: CN(CCC=C1c2ccccc2CCc2ccccc21)[C@@H]1CCCC[C@H]1C(=O)O (racemic)
[out] 972

Values were extracted from ChEMBL document CHEMBL3399947.
